Target: T1, recombinant human PD-L2 (human PD-L2 antigen) (human, UniProt Q9BQ51 20-219, limits assumed)
T1 construct: The Biacore analyte and the ELISA antigen are only called human PD-L2 antigen / recombinant hPD-L2; Whole entry named; also called hPD-L2; recombinant hPD-L2
T1 sequence (looked up): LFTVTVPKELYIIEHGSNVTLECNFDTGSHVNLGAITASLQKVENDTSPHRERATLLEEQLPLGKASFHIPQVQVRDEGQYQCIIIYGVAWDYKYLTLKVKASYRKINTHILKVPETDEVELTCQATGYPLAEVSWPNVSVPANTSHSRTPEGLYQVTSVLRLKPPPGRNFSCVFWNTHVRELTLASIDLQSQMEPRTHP
Experiment: SPR (Biacore 8K), single cycle kinetics, antibody in culture supernatant, human PD-L2 antigen
Measured parameter: Kd (nM)
Provide only the numeric value, understood in nM.

Example results:
VH8/VK3 (antibody, V domains shown, hIgG1 backbone, CHO expressed) VH: QVQLVQSGAEVKKPGSSVKVSCKASGYAFSNYFIEWVKQPPGKGLEWIGLNIPGSGGSNYAEKFKGRATITADKSTSTAYMELSSLRSEDTAVYYCARRRLPPDWYFDVWGQGTTVTVSS VL: DVVMTQSPLSLPVTLGQPASISCRSSQSLVHSGGNTYLHWYQQKPGQPPKLLIYKVSNRFSGVPDRFSGSGSGTDFTLKISRVEAEDVGVYFCSQSTHVPWTFGGGTKVEIK: 0.244
VH2/VK1 (antibody, V domains shown, hIgG1 backbone, CHO expressed) VH: QVQLVQSGAEVKKPGSSVKVSCKASGYAFSNYFIEWVKQPPGKGLEWIGLNIPGSGGSNYAEKFKGRATITADKSTSTAYMELSSLRSEDSAVYFCARRRLPPDWYFDVWGQGTTVTVSS VL: DVVMTQSPLSLPVTLGQPASISCRSSQSLVHSDGNTYLHWYQQKPGQPPKLLIYKVSNRFSGVPDRFSGSGSGTDFTLKISRVEAEDVGVYFCSQSTHVPWTFGGGTKVEIK: 0.0551

Next up:
Entry VH1/VK2 (antibody, V domains shown, hIgG1 backbone, CHO expressed) VH: QVQLVQSGAELKKPGSSVKVSCKASGYAFSNYFIEWVKQPPGKGLEWIGLNIPGSGGSNYAEKFKGRATITADKSTSTAYMELSSLTSEDSAVYFCARRRLPPDWYFDVWGQGTTVTVSS VL: DVVMTQSPLSLPVTLGQPASISCRSSQSLVHSDGNTYLHWYQQKPGQPPKLLIYKVSNRFSGVPDRFSGSGSGTDFTLKISRVEAEDVGVYYCSQSTHVPWTFGGGTKVEIK , Kd reported as 0.0487
